Collected IC50 values appear next to each entry.
measurement_target: Recombinant human renin (Homo sapiens)
Sequence (P00797 67-406): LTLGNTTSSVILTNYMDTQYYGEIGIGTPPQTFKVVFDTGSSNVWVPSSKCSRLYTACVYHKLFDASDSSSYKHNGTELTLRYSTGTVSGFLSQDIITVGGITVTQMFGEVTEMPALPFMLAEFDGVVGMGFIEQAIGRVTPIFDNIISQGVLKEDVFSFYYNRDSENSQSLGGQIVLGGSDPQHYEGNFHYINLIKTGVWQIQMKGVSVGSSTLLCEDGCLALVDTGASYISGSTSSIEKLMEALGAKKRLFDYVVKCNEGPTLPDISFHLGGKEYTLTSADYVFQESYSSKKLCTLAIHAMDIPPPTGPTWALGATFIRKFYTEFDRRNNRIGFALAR
test_name: In vitro renin inhibitory activity assay
details: recombinant human renin 4.2 ng/mL, substrate 4 μM, 37° C., one hour, pH 7.4
quantity_kind: IC50 (nM)

CCC(=O)NCCN1C(=O)C(C)(C)Oc2cc(C)c(C(=O)N(C(C)C)[C@@H]3CCCN(C(=O)OCc4oc(=O)oc4-c4ccccc4)C3)cc21 [Example 7]    1.3
CCC(=O)NCCN1C(=O)C(C)(C)Oc2cc(C)c(C(=O)N(C(C)C)C3CCCN(C(=O)OC(C)OC(=O)CC4CC4)C3)cc21 (stereo not drawn) [Example 98]    9.1
CCC(=O)NCCN1C(=O)C(C)(C)Oc2cc(C)c(C(=O)N(C(C)C)C3CCCN(C(=O)OC(OC(C)=O)C(C)C)C3)cc21 (stereo not drawn) [Example 19]    11
CCC(=O)NCCN1C(=O)C(C)(C)Oc2cc(C)c(C(=O)N(C(C)C)[C@@H]3CCCN(C(=O)OCc4oc(=O)oc4C)C3)cc21 [Example 2]    5.1
CCC(=O)NCCN1C(=O)C(C)(C)Oc2cc(C)c(C(=O)N(C(C)C)C3CCCN(C(=O)OC(C)OC(=O)C(N)C(C)C)C3)cc21 (stereo not drawn) [Example 62]    2.8
CCC(=O)NCCN1C(=O)C2(CCC2)Oc2cc(C)c(C(=O)N(C(C)C)C3CCCN(C(=O)OC(C)OC(=O)CC(C)(C)O)C3)cc21 (stereo not drawn) [Example 50]    15
